Data provenance: PubChem BioAssay AID504332

tested target: Histone-lysine N-methyltransferase EHMT2 (Homo sapiens)
assay protocol: qHTS Assay for Inhibitors of Histone Lysine Methyltransferase G9a; further: on the % scale 0 is the no-effect control and ±100 the full control effect; nearly all actives have a fitted effect of over 75% in size
experimental conditions: G9a H3K9 monomethylation, AlphaScreen, 2 h; series mostly up to 102 µM
Out of some 350,000 compounds screened, about 31,000 (8.9%) were called active. About 15% were inconclusive and are not listed. The sample as a whole holds a higher share of actives than the screen did.
outcome measure: activity, negative = inhibition

Known results for compounds:
compound	tested target	activity, negative = inhibition
CCC(C)C(=O)O[C@@H]1C[C@@]2(C)C(c3ccoc3)OC(=O)CC23OC2(C)O[C@@]14[C@@]1(C)C(CC(=O)OC)C5(C)CC1(O)C(O)(C5OC(=O)C1(C)OC1C)C(OC(C)=O)[C@@]34O2 (stereo not given in full)	Histone-lysine N-methyltransferase EHMT2 (Homo sapiens)	-36.9% [at 2.33 µM] (inactive)
CC(C)N(CC#CCC1(O)c2ccccc2-c2ccccc21)C(C)C	Histone-lysine N-methyltransferase EHMT2 (Homo sapiens)	inactive
CCOC(=O)C1=C(C)OC(N)=C(C(=O)OC)C12C(=O)Nc1ccc(Br)cc12 (stereo not given)	Histone-lysine N-methyltransferase EHMT2 (Homo sapiens)	8.25% [at 2.33 µM] (inactive)
COC(=O)C1=C(c2ccc(F)cc2OCc2ccccc2)C[C@@H]2CC[C@H]1N2C(=O)NCc1ccc(Cl)cc1	Histone-lysine N-methyltransferase EHMT2 (Homo sapiens)	8.03% [at 2.33 µM] (inactive)

From here, focus on the item given below.
Histone-lysine N-methyltransferase EHMT2 (Homo sapiens) assay, compound `OCC#CC[N+]1(CC#Cc2ccccc2)CCCC1` , recorded activity, negative = inhibition = inactive
